System: B. infantis HA-116
test-protocol: BioLector growth on carbon sources
Format: cell-based, Bifidobacterium infantis
Set-up: key: +++: fast exponential growth reaching a plateau before 45 hours; ++: slower exponential growth reaching a plateau after 45 hours; +: slow almost linear growth, does not reach plateau during the time of fermentation; −: No significant growth for 50 h or more
measurement-conditions: 1% carbon source in MRS without glucose, 37° C., up to 72 hours, anaerobic
readout-label: Ability to grow on carbon source

GET /value?item= CC(=O)N[C@H]1[C@H](O[C@H]2[C@@H](O)[C@@H](CO)O[C@@H](O[C@H]3[C@H](O)[C@@H](O)C(O)O[C@@H]3CO)[C@@H]2O)O[C@H](CO)[C@@H](O[C@@H]2O[C@H](CO)[C@H](O)[C@H](O)[C@H]2O)[C@@H]1O (mixture of isomers) &field=Ability to grow on carbon source returns +

Value of measured Ability to grow on carbon source for the entry `CC(=O)N[C@H]1[C@H]([C@H](O)[C@H](O)CO)O[C@@](OC[C@H]2O[C@@H](O[C@H]3[C@H](O)[C@@H](O)[C@H](O)O[C@@H]3CO)[C@H](O)[C@@H](O)[C@H]2O)(C(=O)O)C[C@@H]1O` : −

The measured Ability to grow on carbon source associated with CC(=O)N[C@H]1[C@H]([C@H](O)[C@H](O)CO)O[C@@](O[C@H]2[C@@H](O)[C@@H](CO)O[C@@H](O[C@H]3[C@H](O)[C@@H](O)C(O)O[C@@H]3CO)[C@@H]2O)(C(=O)O)C[C@@H]1O (some centres unmarked) reads −

Item: CC(=O)N[C@H]1[C@H](O[C@H]2[C@@H](O)[C@@H](CO)O[C@@H](O[C@H]3[C@H](O)[C@@H](O)C(O)O[C@@H]3CO)[C@@H]2O)O[C@H](CO)[C@@H](O)[C@@H]1O[C@@H]1O[C@H](CO)[C@H](O)[C@H](O)[C@H]1O (some centres unmarked) | Ability to grow on carbon source: +
